The compounds listed here are annotated with their TGI.
# Tested on: OVCAR-4 ovarian
# Assay Comment: NCI tumour cell line growth inhibition, 48 h

Use these answered entries as a reference point.
| Compound | Measured On | TGI |
| --- | --- | --- |
| C/C=C\C(CC(=O)NCCc1c[nH]c2ccccc12)CC(=O)OC (stereo not drawn) | OVCAR-4 ovarian | > 100 µM |
| CCC(=O)Nc1ccc(N2C(=O)/C(=C/c3ccc(O)c(OC)c3)N=C2c2ccccc2)cc1 | OVCAR-4 ovarian | > 100 µM |
| Cc1ccccc1-c1c(N)nc(NC#N)nc1C(=O)Nc1ccccc1 | OVCAR-4 ovarian | > 100 µM |
| O=C(/C=C/c1ccc(OCC(=O)N2CCN(c3ccccc3)CC2)cc1)c1ccc(Cl)cc1 | OVCAR-4 ovarian | > 97.7 µM |
| COc1ccc(C(=O)/C=C/c2ccc(OCCCOc3ccc(/C=C/C(=O)c4ccc(OC)c(OC)c4)cc3)cc2)cc1OC | OVCAR-4 ovarian | > 100 µM |

# input Entry C=C(C)[C@@H]1CC[C@]2(C(=O)OC3OC(COC4OC(CO)C(OC5OC(C)C(O)C(O)C5O)C(O)C4O)C(O)C(O)C3O)CC[C@]3(C)[C@H](CC[C@@H]4[C@@]5(C)CC[C@H](O)[C@@](C)(CO)[C@@H]5CC[C@]43C)[C@@H]12 (stereo partly drawn) has what TGI?
# output > 10 µM

# input Entry OCCCCC#Cc1ccccc1C#Cc1ccccc1 has what TGI?
# output 53.2 µM

# input Entry CC1=C([Se]CC(OC(=O)CC[Se]c2ccccc2)C(=O)NCCCCCC(=O)OCc2ccccc2)C(=O)c2ccccc2C1=O (stereo not drawn) has what TGI?
# output 6.56 µM

----------
# Test system: CAKI-1 renal
# Assay Comment: NCI tumour cell line growth inhibition, 48 h
The compounds listed here are annotated with their TGI.

| Compound | TGI |
| --- | --- |
| CCN(CC)c1ccc(/C=C\c2cc(C)c3cc(C)ccc3n2)cc1 | > 100 µM |
| COc1ccc(OC)c(-c2cn3c(n2)sc2ccccc23)c1 | > 100 µM |
| COC(C/C=C\C=C\CC/C=C/CC(C)/C=C/C(=C\C(=O)O)CC(=O)O)/C(C)=C\C=C(/C)C(=O)O (stereo unspecified) | > 100 µM |
| Clc1ccc(-n2nnc(C3=NCCN3)c2-c2ccccc2)cc1 | > 100 µM |

# input Entry CC1=C([Se]CC(OC(=O)CC[Se]c2ccccc2)C(=O)NCCCCCC(=O)OCc2ccccc2)C(=O)c2ccccc2C1=O (stereo unspecified) has what TGI?
# output 7.72 µM

# input Entry O=Cc1c(-c2cc(O)ccc2O)nc2sccn12 has what TGI?
# output 4.09 µM

----------
The compounds listed here are annotated with their TGI.
# Tested on: HCC-2998 colon
# Assay Comment: NCI tumour cell line growth inhibition, 48 h

| Compound | Measured Result |
| --- | --- |
| CCOP(=O)(OCC)C(NC(c1ccccc1)c1ccccc1)c1ccccc1 (stereo not given) | 29.5 µM |
| CCN1C2=NC(=O)N(C)C(=O)C2(Cl)C(C(SC)S(=O)(=O)c2ccc(C)cc2)c2ccccc21 (stereo not given) | > 100 µM |
| O=Cc1c(-c2cc(O)ccc2O)nc2sccn12 | 33.6 µM |
| CC(C)Oc1cc2c(cc1O)CC[C@@H]1[C@@H]2CC[C@]2(C)[C@@H](O)CC[C@@H]12 | 20.9 µM |
| COP(=O)(OC)C(NC(c1ccccc1)c1ccccc1)c1ccc2c(c1)OCO2 (stereo not given) | > 100 µM |
| CN(C)CCCn1c2c(c3cnccc3c1=O)C(=O)c1ccccc1-2 | 2.6 µM |
| c1ccc2c(c1)ccc1c3ccccc3c(NCCCCN3CCCCC3)cc21 | 3.36 µM |
| O=C1C(Cl)C(c2cccc(O)c2)N1n1cnc2ccccc2c1=O (stereo not given) | > 100 µM |
| CC(=O)Nc1nc(C)c(S(=O)(=O)NC(=O)N2c3ccccc3CCc3ccccc32)s1 | > 100 µM |

# input Entry CCC(=O)Nc1ccc(N2C(=O)/C(=C/c3ccc(O)c(OC)c3)N=C2c2ccccc2)cc1 has what TGI?
# output > 100 µM

----------
# Test system: HOP-92 NSCLC
# Assay Comment: NCI tumour cell line growth inhibition, 48 h
Measured Property: TGI

Use these answered entries as a reference point.
| Compound | Measured On | TGI |
| --- | --- | --- |
| CC[C@]1(O)CC2CN(CCc3c([nH]c4ccccc34)[C@@](C(=O)OC)(c3cc4c(cc3OC)N(C)[C@H]3[C@@](O)(C(=O)OC)[C@H](OC(C)=O)[C@]5(CC)C=CCN6CC[C@]43[C@@H]65)C2)C1 (some centres undefined) | HOP-92 NSCLC | 0.119 µM |
| S=c1oc(CCCCCCCCc2nn(CNc3ccc(Cl)cc3)c(=S)o2)nn1CNc1ccc(Cl)cc1 | HOP-92 NSCLC | > 100 µM |
| C=C1CN=C(Nc2ccc(F)cc2F)S1 | HOP-92 NSCLC | > 100 µM |

# input Checklist item: TGI tested on HOP-92 NSCLC, entry Clc1ccc(Cc2nc3ccccc3nc2-c2cccc(Cl)c2)cc1 , value?
# output 5.14 µM

# input Checklist item: TGI tested on HOP-92 NSCLC, entry O=C(O)C(=Cc1ccnc2ccccc12)C(=O)O , value?
# output > 100 µM

# input Checklist item: TGI tested on HOP-92 NSCLC, entry Cc1cccc(=O)c([O-])c1.Cc1cccc(=O)c([O-])c1.Cc1cccc(=O)c([O-])c1.Cc1cccc(=O)c([O-])c1.[Th+4] , value?
# output > 68.9 µM

# input Checklist item: TGI tested on HOP-92 NSCLC, entry O=c1cc(C(F)(F)F)c2cc3c(cc2o1)NCCC3 , value?
# output > 100 µM

# input Checklist item: TGI tested on HOP-92 NSCLC, entry COc1c(-c2ccc(F)cc2)oc2cc(O)cc(O)c2c1=O , value?
# output > 100 µM

# input Checklist item: TGI tested on HOP-92 NSCLC, entry Cc1cn(C2CC(F)C(CO)O2)c(=O)[nH]c1=O (centres undefined) , value?
# output > 100 µM

----------
# System: SK-MEL-28 melanoma
# Assay Comment: NCI tumour cell line growth inhibition, 48 h
The molecules listed here are annotated with their GI50.

| Molecule | GI50 |
| --- | --- |
| OCc1cn(Cc2cccc(Cl)c2)c2ccccc12 | 20.5 µM |

# input Checklist item: GI50 tested on SK-MEL-28 melanoma, entry C=C1C(=O)O[C@H]2[C@H]1CC/C(COC(=O)NCc1cc3ccccc3[nH]1)=C\CC[C@@]1(C)O[C@@H]21 , value?
# output 1.74 µM

----------
# System: OVCAR-3 ovarian
# Assay Comment: NCI tumour cell line growth inhibition, 48 h
Measured Property: GI50

Use these answered entries as a reference point.
| Compound | Measured On | Measured Property | Measured Result |
| --- | --- | --- | --- |
| C1CC[N-]CC1.C1CC[N-]CC1.C1CC[N-]CC1.C1CC[N-]CC1.[Cl][Rh][Cl] | OVCAR-3 ovarian | GI50 | 10.6 µM |
| CC(CN(CP(=O)([O-])[O-])CP(=O)([O-])[O-])N(CP(=O)([O-])[O-])CP(=O)([O-])[O-].N.N.[Pt+2] (stereo not given) | OVCAR-3 ovarian | GI50 | > 100 µM |

Alright, here's another compound for you.
# input Entry N[C@@H](Cc1c[nH]c2ccccc12)C(=O)NC1CCN(C(=O)c2c[nH]c3ccccc23)CC1 has what GI50?
# output > 100 µM

----------
The molecules listed here are annotated with their GI50.
# System: SK-MEL-28 melanoma
# Assay Comment: NCI tumour cell line growth inhibition, 48 h

| Molecule | GI50 |
| --- | --- |
| Cc1ccc2c(c1)nc(C(=O)c1ccco1)c(C(F)(F)F)[n+]2[O-] | > 100 µM |
| CCN(CC)c1ccc(/C=C\c2cc(C)c3cc(C)ccc3n2)cc1 | 5.17 µM |
| C(=N\Nc1ccccn1)/c1ccccn1 | 0.816 µM |

# input Checklist item: GI50 tested on SK-MEL-28 melanoma, entry [Cl][Bi]([O]c1ccccn1)[O]c1ccccn1 , value?
# output > 100 µM

----------
The molecules listed here are annotated with their TGI.
# Test system: OVCAR-5 ovarian
# Assay Comment: NCI tumour cell line growth inhibition, 48 h

Use these answered entries as a reference point.
| Molecule | Measured Property | Measured Result |
| --- | --- | --- |
| N#CC(=S)Nc1cccc(Cl)c1 | TGI | > 100 µM |
| CCCCn1c2cc(OCc3cn(-c4ccc(Cl)cc4)nn3)ccc2c2ccnc(C)c21 | TGI | 21.5 µM |
| COc1ccccc1-[n+]1cc(-c2ccc(-c3ccccc3)cc2)n2c1CCCCC2 | TGI | 16.6 µM |
| COCCN(C(=O)c1ccccc1)C1CCC(=O)c2[nH]c3ccccc3c21 (configuration not stated) | TGI | 30.6 µM |
| CCCCN(CCCC)C1=Nc2ccccc2-n2c(nnc2C(=O)OCC)C1 | TGI | > 100 µM |

# input Entry Cn1c(=O)[nH]n(-c2ccc3ccccc3c2)c1=O has what TGI?
# output > 100 µM

# input Entry COc1ccc(Nc2nc(NNC(=O)Cc3ccccc3)nc(NNC(=O)c3ccncc3)n2)cc1 has what TGI?
# output > 10 µM

# input Entry CN(c1ccc(Cl)cc1)S(=O)(=O)c1ccccc1 has what TGI?
# output > 100 µM

# input Entry Cc1c(/C=N/NS(=O)(=O)c2ccccc2)no[n+]1[O-] has what TGI?
# output > 100 µM

# input Entry O=c1cccc(C#CC#C[C@H]2O[C@@H]2CO)o1 has what TGI?
# output 3.57 µM

# input Entry COCCn1cc(-c2csc(-c3c[nH]c4ccccc34)n2)c2cccnc21 has what TGI?
# output > 100 µM

# input Entry COc1ccc2c3c([nH]c2c1)-c1nc2ccccc2c(=O)n1CC3 has what TGI?
# output > 25 µM
